The entries below pair compounds with Ki values for Aurora kinase A (Homo sapiens, UniProt O14965), as found in several publications.
Target: Aurora kinase A (Homo sapiens, UniProt O14965)
Sequence (O14965 whole entry): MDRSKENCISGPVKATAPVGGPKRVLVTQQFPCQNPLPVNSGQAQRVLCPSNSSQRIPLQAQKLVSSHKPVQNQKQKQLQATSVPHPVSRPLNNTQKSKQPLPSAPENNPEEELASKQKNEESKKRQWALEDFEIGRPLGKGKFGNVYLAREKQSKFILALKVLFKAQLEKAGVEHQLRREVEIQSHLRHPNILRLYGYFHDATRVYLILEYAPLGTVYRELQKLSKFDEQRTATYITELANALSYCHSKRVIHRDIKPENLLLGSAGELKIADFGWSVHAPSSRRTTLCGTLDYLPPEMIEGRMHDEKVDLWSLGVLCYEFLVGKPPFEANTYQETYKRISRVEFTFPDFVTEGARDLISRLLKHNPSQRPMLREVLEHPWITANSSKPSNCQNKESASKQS
API: label(entry) gives Met if the entry's Ki is strictly smaller than 5 nM; on equality or larger values it gives Not met.

>  <compound>
Cc1cc(Nc2cc(C)c(C#N)c(NCCCCCCO)n2)[nH]n1

>  <tested_on>
Aurora kinase A (Homo sapiens, UniProt O14965)

>  <class>
Met

$$$$
>  <compound>
CC1CCc2c(C(=O)Nc3cnn(Cc4ccccc4)c3)n[nH]c2C1 (stereo not given)

>  <tested_on>
Aurora kinase A (Homo sapiens, UniProt O14965)

>  <class>
Not met

$$$$
>  <compound>
Cc1cc(Nc2cc(-c3ccccc3)c(C#N)c(Sc3ccc(NC(=O)C(C)C)cc3)n2)n[nH]1

>  <tested_on>
Aurora kinase A (Homo sapiens, UniProt O14965)

>  <class>
Not met

$$$$
>  <compound>
CN1CC(C)(C)C(c2cc(Nc3ccnc(N(C)C[C@H]4CC[C@H](N)CC4)n3)n[nH]2)C1=O (stereo not given in full)

>  <tested_on>
Aurora kinase A (Homo sapiens, UniProt O14965)

>  <class>
Not met

$$$$
>  <compound>
CCC(=O)Nc1ccc(Sc2nc(Nc3cc(C)n[nH]3)cc(C3CC3)n2)cc1

>  <tested_on>
Aurora kinase A (Homo sapiens, UniProt O14965)

>  <class>
Met

$$$$
>  <compound>
CCC(=O)Nc1ccc(Sc2nc(Nc3cc(C)n[nH]3)cc(N3CCN(C(C)(C)C)CC3)n2)cc1

>  <tested_on>
Aurora kinase A (Homo sapiens, UniProt O14965)

>  <class>
Met

$$$$
>  <compound>
COc1ccccc1Nc1nc(N)n(-c2ccccn2)n1

>  <tested_on>
Aurora kinase A (Homo sapiens, UniProt O14965)

>  <class>
Not met

$$$$
>  <compound>
Cc1cc(Nc2cc(C)c(C#N)c(SCCCCCCO)n2)[nH]n1

>  <tested_on>
Aurora kinase A (Homo sapiens, UniProt O14965)

>  <class>
Not met

$$$$
>  <compound>
CN(Cc1ccc2[nH]cnc2c1Cl)c1nccc(Nc2cc(C3CCC(=O)C3)[nH]n2)n1 (racemic)

>  <tested_on>
Aurora kinase A (Homo sapiens, UniProt O14965)

>  <class>
Not met

$$$$
>  <compound>
CCC(=O)Nc1ccc(Sc2nc(Nc3cc(C)[nH]n3)cc(-c3ccncc3)n2)cc1

>  <tested_on>
Aurora kinase A (Homo sapiens, UniProt O14965)

>  <class>
Met

$$$$
>  <compound>
CC12Cc3[nH]nc(C(=O)Nc4cnn(Cc5ccccc5)c4)c3CC1C2 (stereo not given)

>  <tested_on>
Aurora kinase A (Homo sapiens, UniProt O14965)

>  <class>
Not met

$$$$
>  <compound>
Nc1nc(Nc2ccccc2Cl)nn1-c1ccccn1

>  <tested_on>
Aurora kinase A (Homo sapiens, UniProt O14965)

>  <class>
Not met

$$$$
>  <compound>
CN1CCCC(c2cc(Nc3ccnc(N(C)C[C@H]4CC[C@H](N)CC4)n3)n[nH]2)C1=O (mixture of isomers)

>  <tested_on>
Aurora kinase A (Homo sapiens, UniProt O14965)

>  <class>
Not met

$$$$
>  <compound>
CCc1ccccc1Nc1ncc(C)c(-c2c[nH]c(C(=O)N[C@H](CO)c3ccccc3)c2)n1

>  <tested_on>
Aurora kinase A (Homo sapiens, UniProt O14965)

>  <class>
Not met

$$$$
>  <compound>
O=C(N[C@H](CO)c1ccc(F)c(Cl)c1)c1cc(-c2n[nH]cc2-c2cccc(Cl)c2)c[nH]1

>  <tested_on>
Aurora kinase A (Homo sapiens, UniProt O14965)

>  <class>
Not met

$$$$
>  <compound>
CC(=O)Nc1ccc(Sc2nc(Nc3cc(C)n[nH]3)cc(C)c2C#N)cc1

>  <tested_on>
Aurora kinase A (Homo sapiens, UniProt O14965)

>  <class>
Not met

$$$$
>  <compound>
CC(=O)Nc1ccc(Sc2nc(Nc3cc(C)[nH]n3)cc(-c3ccccc3)n2)cc1

>  <tested_on>
Aurora kinase A (Homo sapiens, UniProt O14965)

>  <class>
Met

$$$$
>  <compound>
CCN(C[C@H]1CC[C@H](N)CC1)c1nccc(Nc2cc([C@H]3CCN(C)C3=O)[nH]n2)n1

>  <tested_on>
Aurora kinase A (Homo sapiens, UniProt O14965)

>  <class>
Not met

$$$$
>  <compound>
CC1(CO)CCc2c(C(=O)Nc3cnn(Cc4ccccc4)c3)n[nH]c2C1 (racemic)

>  <tested_on>
Aurora kinase A (Homo sapiens, UniProt O14965)

>  <class>
Not met

$$$$
>  <compound>
Cc1cc(Nc2cc(C)c(C#N)c(SCCCCCCN)n2)[nH]n1

>  <tested_on>
Aurora kinase A (Homo sapiens, UniProt O14965)

>  <class>
Not met

$$$$
